Hey, just so you know, these numbers are from patent US10435399B2.

- TESTED_SYSTEM: HDAC6 enzyme (Homo sapiens, UniProt Q9UBN7)
- Construct: transducing full length HDAC6 gene into Sf-9 insect cells; GST; purchased SignalChem; host or cells: Sf-9 insect cells
- Sequence (Q9UBN7 whole entry): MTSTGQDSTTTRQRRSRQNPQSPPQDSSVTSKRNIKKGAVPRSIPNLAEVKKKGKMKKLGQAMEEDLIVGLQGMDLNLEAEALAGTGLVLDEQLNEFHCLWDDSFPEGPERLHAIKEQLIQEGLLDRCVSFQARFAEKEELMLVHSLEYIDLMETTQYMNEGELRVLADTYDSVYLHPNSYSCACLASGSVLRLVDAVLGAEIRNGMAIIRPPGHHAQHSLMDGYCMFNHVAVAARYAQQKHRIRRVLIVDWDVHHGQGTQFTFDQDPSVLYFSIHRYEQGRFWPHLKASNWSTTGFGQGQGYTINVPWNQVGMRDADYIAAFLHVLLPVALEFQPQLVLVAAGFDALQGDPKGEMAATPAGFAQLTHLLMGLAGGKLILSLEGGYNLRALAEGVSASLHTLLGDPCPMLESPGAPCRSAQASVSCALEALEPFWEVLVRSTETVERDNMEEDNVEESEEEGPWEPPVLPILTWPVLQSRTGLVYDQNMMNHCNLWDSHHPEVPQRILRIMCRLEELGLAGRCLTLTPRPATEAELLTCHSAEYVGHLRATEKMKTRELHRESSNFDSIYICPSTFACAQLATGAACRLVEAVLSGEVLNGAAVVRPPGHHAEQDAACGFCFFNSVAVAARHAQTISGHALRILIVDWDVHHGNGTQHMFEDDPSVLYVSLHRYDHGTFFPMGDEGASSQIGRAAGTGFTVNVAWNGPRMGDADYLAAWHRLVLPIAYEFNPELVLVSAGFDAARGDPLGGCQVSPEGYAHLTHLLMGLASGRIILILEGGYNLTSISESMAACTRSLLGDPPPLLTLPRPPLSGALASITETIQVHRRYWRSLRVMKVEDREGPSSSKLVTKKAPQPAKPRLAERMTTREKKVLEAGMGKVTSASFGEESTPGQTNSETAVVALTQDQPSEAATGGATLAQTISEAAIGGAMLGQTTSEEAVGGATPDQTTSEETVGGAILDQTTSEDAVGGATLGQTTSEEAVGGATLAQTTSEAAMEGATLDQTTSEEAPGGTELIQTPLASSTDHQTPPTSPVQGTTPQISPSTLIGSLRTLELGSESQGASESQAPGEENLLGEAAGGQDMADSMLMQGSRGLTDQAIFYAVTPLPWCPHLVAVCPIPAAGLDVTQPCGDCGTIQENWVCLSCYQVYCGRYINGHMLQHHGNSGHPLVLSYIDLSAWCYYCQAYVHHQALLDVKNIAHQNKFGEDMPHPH
- PROCEDURE_TEXT: HDAC6 enzyme inhibitory activity (HDAC-Glo I/II Assay kit)
- Assay type: biochemical
- REPORTED_CONDITIONS: 10 μM; wells without enzyme = 100% inhibition; read-out: HDAC6 inhibitory rate (%) (10 μM)
MEASURE_NAME: inhibition at 10 µM (%)

MOLECULE | RESULT_UNIT | inhibition at 10 µM
CCOc1cnccc1-c1ccccc1N1Cc2ccc(-c3nnc(C(F)F)o3)cc2C1=O [Example 291] | % | 98
O=C(N[C@@H]1CCCC[C@H]1N1Cc2ccc(-c3nnc(C(F)F)o3)cc2C1=O)c1ccccn1 [Example 105] | % | 98
O=C(N[C@@H]1CCCC[C@H]1N1Cc2ccc(-c3nnc(C(F)F)o3)cc2C1=O)[C@H]1CCCO1 [Example 113] | % | 102
COC(=O)N[C@@H]1CCCC[C@H]1N1Cc2c(F)cc(-c3nnc(C(F)F)o3)cc2C1=O [Example 153] | % | 100
Cn1ccc(CN2Cc3ncc(-c4nnc(C(F)F)o4)cc3C2=O)n1 [Example 419] | % | 99
O=C1c2cc(-c3nnc(C(F)F)o3)cnc2CN1[C@H]1[C@H](NC(=O)C(F)(F)C(F)(F)F)CCCC1(F)F [Example 497] | % | 101

----------
- TESTED_SYSTEM: HDAC6 enzyme (Homo sapiens)
- Construct: transducing full length HDAC6 gene into Sf-9 insect cells; GST; purchased SignalChem; host or cells: Sf-9 insect cells
- PROCEDURE_TEXT: HDAC6 enzyme inhibitory activity (HDAC-Glo I/II Assay kit)
- Assay type: biochemical
- REPORTED_CONDITIONS: 10 μM; wells without enzyme = 100% inhibition; read-out: HDAC6 inhibitory rate (%) (10 μM)
MEASURE_NAME: inhibition at 10 µM (%)

COMPOUND | RESULT_UNIT | inhibition at 10 µM
O=C1c2cc(-c3nnc(C(F)F)o3)cc(F)c2CN1C[C@H]1CC(F)(F)CN1C(=O)c1ccccc1 [Example 429] | % | 97
CN1CCN([C@@H]2CCCC[C@H]2N2Cc3ccc(-c4nnc(C(F)F)o4)cc3C2=O)C1=O [Example 157] | % | 98
CC(C)(C)OC(=O)N[C@H]1COCC[C@H]1N1Cc2ccc(-c3nnc(C(F)F)o3)cc2C1=O [Example 413] | % | 98
Cn1cc(-c2cc(F)cc(F)c2)c(N2Cc3ccc(-c4nnc(C(F)F)o4)cc3C2=O)n1 [Example 455] | % | 102
CC(C)(C)OC(=O)N[C@@H]1COCC[C@H]1N1Cc2c(F)cc(-c3nnc(C(F)F)o3)cc2C1=O [Example 167] | % | 100
O=C1c2cc(-c3nnc(C(F)F)o3)ccc2CN1c1ccccc1-c1cccc2c1CCO2 [Example 288] | % | 102
Cn1cc(-c2cccc(Cl)c2)c(N2Cc3ccc(-c4nnc(C(F)F)o4)cc3C2=O)n1 [Example 369] | % | 99
O=C1c2cc(-c3nnc(C(F)F)o3)cc(F)c2CN1C[C@H]1COCCN1S(=O)(=O)C1CC1 [Example 197] | % | 100
O=C1c2cc(-c3nnc(C(F)F)o3)ccc2CN1[C@@H]1CCCC(F)(F)[C@H]1NC(=O)C(F)(F)C(F)F [Example 581] | % | 99
Cn1cc(-c2cccc(F)c2)c(N2Cc3ccc(-c4nnc(C(F)F)o4)cc3C2=O)n1 [Example 384] | % | 99
N[C@@H]1CCCC(F)(F)[C@H]1N1Cc2ncc(-c3nnc(C(F)F)o3)cc2C1=O [Example 495] | % | 89
O=C1c2cc(-c3nnc(C(F)F)o3)cnc2CN1Cc1cc2ccccn2n1 [Example 457] | % | 97
O=C(CCC(F)F)N[C@@H]1CCCC[C@H]1N1Cc2ccc(-c3nnc(C(F)F)o3)cc2C1=O [Example 64] | % | 100
N#Cc1cccc(C(=O)N[C@@H]2CCCC[C@H]2N2Cc3ncc(-c4nnc(C(F)F)o4)cc3C2=O)c1 [Example 225] | % | 98
O=C(N[C@@H]1CCCC[C@H]1N1Cc2ccc(-c3nnc(C(F)F)o3)cc2C1=O)C1CC12CCC2 (stereo partly shown) [Example 72] | % | 97
O=C(O[C@@H]1CCCC[C@H]1N1Cc2ccc(-c3nnc(C(F)F)o3)cc2C1=O)N1CCCCC1 [Example 254] | % | 102
Cn1cc(C2CCOCC2)c(N2Cc3ccc(-c4nnc(C(F)F)o4)cc3C2=O)n1 [Example 446] | % | 100
O=C1c2cc(-c3nnc(C(F)F)o3)cnc2CN1Cc1cccc(C(F)F)c1 [Example 370] | % | 101
O=C1c2cc(-c3nnc(C(F)F)o3)ccc2CN1[C@@H]1CCCC[C@H]1n1cc2ccccc2n1 [Example 55] | % | 101
N#Cc1ccc(N2Cc3ccc(-c4nnc(C(F)F)o4)cc3C2=O)c(-c2ccccc2)c1 [Example 443] | % | 100
O=C(CC1(O)CCCC1)N[C@@H]1CCCC[C@H]1N1Cc2ccc(-c3nnc(C(F)F)o3)cc2C1=O [Example 26] | % | 98
Cn1cc(-c2c(Cl)cccc2N2Cc3ccc(-c4nnc(C(F)F)o4)cc3C2=O)cn1 [Example 403] | % | 102
O=C1c2cc(-c3nnc(C(F)F)o3)ccc2CN1N1CCCCC1c1cccc(F)c1 (stereo not shown) [Example 603] | % | 100
O=C1c2cc(-c3nnc(C(F)F)o3)ccc2CN1N1CCCC1c1ccccn1 (stereo not shown) [Example 570] | % | 100
COC(=O)N1CC[C@@H](c2ccc(F)cc2)[C@H](N2Cc3ccc(-c4nnc(C(F)F)o4)cc3C2=O)C1 (racemic) [Example 504] | % | 100

----------
- TESTED_SYSTEM: HDAC6 enzyme (Homo sapiens, UniProt Q9UBN7)
- Construct: transducing full length HDAC6 gene into Sf-9 insect cells; GST; purchased SignalChem; host or cells: Sf-9 insect cells
- PROCEDURE_TEXT: HDAC6 enzyme inhibitory activity (HDAC-Glo I/II Assay kit)
- Type: biochemical
- REPORTED_CONDITIONS: 10 μM; wells without enzyme = 100% inhibition; read-out: HDAC6 inhibitory rate (%) (10 μM)
MEASURE_NAME: inhibition at 10 µM (%)

COMPOUND | MEASURE_NAME | RESULT_UNIT | NUMERIC_VALUE
O=C1CCCN1[C@@H]1CCCC[C@H]1N1Cc2ncc(-c3nnc(C(F)F)o3)cc2C1=O [Example 177] | inhibition at 10 µM | % | 97
CC(C)(OC(=O)N[C@@H]1CCCC[C@H]1N1Cc2ncc(-c3nnc(C(F)F)o3)cc2C1=O)C(F)(F)F [Example 268] | inhibition at 10 µM | % | 100
O=C1c2cc(-c3nnc(C(F)F)o3)cnc2CN1Cc1cccc(Cl)c1 [Example 342] | inhibition at 10 µM | % | 100
O=C1c2cc(-c3nnc(C(F)F)o3)ccc2CN1Cc1ccc(C(F)(F)F)cc1 [Example 59] | inhibition at 10 µM | % | 94
O=C1c2ccccc2CN1[C@@H]1CCCC[C@H]1N1Cc2ccc(-c3nnc(C(F)F)o3)cc2C1=O [Example 14] | inhibition at 10 µM | % | 100

A. O=C1c2cc(-c3nnc(C(F)F)o3)cc(F)c2CN1C[C@H]1CC(F)(F)CN1 [Example 354]
B. O=C1c2cc(-c3nnc(C(F)F)o3)ccc2CN1c1ccccc1-c1cnc(OCC(F)(F)F)nc1 [Example 322]
stdin: From the recorded data, which exceeds the other in inhibition at 10 µM: A or B ? Give the chosen item's label as your response.
stdout: A
(A: 92%, B: 23%)

----------
- TESTED_SYSTEM: HDAC6 enzyme (Homo sapiens)
- Construct: transducing full length HDAC6 gene into Sf-9 insect cells; GST; purchased SignalChem; host or cells: Sf-9 insect cells
- PROCEDURE_TEXT: HDAC6 enzyme inhibitory activity (HDAC-Glo I/II Assay kit)
- Assay type: biochemical
- REPORTED_CONDITIONS: 10 μM; wells without enzyme = 100% inhibition; read-out: HDAC6 inhibitory rate (%) (10 μM)
- Description: HDAC6 enzyme prepared by transducing full length HDAC6 gene into Sf-9 insect cells and purifying by GST affinity column were purchased from SignalChem. Using this enzyme, HDAC6 enzyme inhibitory activities of the compound of the present invention were evaluated. Enzymes were used after preserved at −70° C. HDAC6 enzyme inhibitory activity of the compound of the present invention was measured using HDAC-Glo™ I/II Assay kit (Promega) according to the following experimental method. […]
MEASURE_NAME: inhibition at 10 µM (%)

CPD_SMILES | TESTED_SYSTEM | inhibition at 10 µM / %
CC(F)(F)C(=O)N[C@H]1CCCC[C@H]1N1Cc2ccc(-c3nnc(C(F)F)o3)cc2C1=O | HDAC6 enzyme (Homo sapiens) | 101
CC(C)(C(=O)N[C@@H]1CCCC[C@H]1N1Cc2ncc(-c3nnc(C(F)F)o3)cc2C1=O)C(F)(F)F | HDAC6 enzyme (Homo sapiens) | 98
Cn1cc(-c2ccccc2N2Cc3ccc(-c4nnc(C(F)F)o4)cc3C2=O)cn1 | HDAC6 enzyme (Homo sapiens) | 100
O=C1CCCN1c1cc(F)ccc1N1Cc2ccc(-c3nnc(C(F)F)o3)cc2C1=O | HDAC6 enzyme (Homo sapiens) | 99
CCCC(=O)N[C@@H]1CCCC[C@H]1N1Cc2ccc(-c3nnc(C(F)F)o3)cc2C1=O | HDAC6 enzyme (Homo sapiens) | 101
O=C1c2cc(-c3nnc(C(F)F)o3)ccc2CN1[C@@H]1CCCC[C@H]1Nc1ccccn1 | HDAC6 enzyme (Homo sapiens) | 99
Cn1cc(-c2ccccc2F)c(N2Cc3ccc(-c4nnc(C(F)F)o4)cc3C2=O)n1 | HDAC6 enzyme (Homo sapiens) | 102
O=C(N[C@@H]1CCCC[C@H]1N1Cc2ccc(-c3nnc(C(F)F)o3)cc2C1=O)C1CC2(CCC2)C1 | HDAC6 enzyme (Homo sapiens) | 97
